Entries with reported Ki on Menin (Homo sapiens)
Expressed in nM, but write only the number.

INSERT INTO results (molecule, test_target, metric, endpoint_result) VALUES
  ('O=S(=O)(c1ccncc1)c1ccc(N2CC(CN3CCC(C4(C5CCCC5)CN(CC5CC5)Cc5ccccc54)CC3)C2)cc1 (centres undefined)', 'Menin (Homo sapiens)', 'Ki', 1.4),
  ('N#Cc1ccc(N2CCC(CN3CCC(C4(C5CCCC5)NCCc5ccccc54)CC3)C2)cc1 (centres undefined)', 'Menin (Homo sapiens)', 'Ki', 27),
  ('N#Cc1ccc(OCCCCN2CCC(C3(C4CCCC4)NCCc4ccccc43)CC2)cc1 (centres undefined)', 'Menin (Homo sapiens)', 'Ki', 1300);

# input for lookup
What measured Ki goes with O=S(=O)(c1ccc(N2CC(CN3CCC(C4(C5CCCC5)NCCc5ccccc54)CC3)C2)cc1)C1CC1 (centres undefined) ?
7

###

- test.target: Menin (Homo sapiens, UniProt O00255)
- assay.info: Inhibition of FAM-probe binding to Menin (unknown origin) after 60 mins by fluorescence polarization competitive binding assay
metric: log10 of IC50 (log10 of the value in nM)
Plainly stated, the numbers are log10 of IC50 given in nM.

Study these solved cases before continuing.
INSERT INTO assay_data (compound, test_target, endpoint_result) VALUES
  ('N#Cc1ccc(OCCCCN2CCC(C3(C4CCCC4)NCCc4ccccc43)CC2)cc1 (stereo not given)', 'Menin (Homo sapiens, UniProt O00255)', 3.70),
  ('CCO[C@H]1CCC[C@@H]1[C@](C#N)(c1ccccc1)C1CCN(CC2CN(c3ccc(C#N)cc3)C2)CC1 (racemic)', 'Menin (Homo sapiens, UniProt O00255)', 3.73),
  ('CCCC(=O)O[C@H]1CCC[C@@H]1[C@](C#N)(c1ccccc1)C1CCN(CC2CN(c3ccc(C#N)cc3)C2)CC1 (mixture of isomers)', 'Menin (Homo sapiens, UniProt O00255)', 3.04),
  ('CN1Cc2ccccc2C(C2CCCC2)(C2CCN(CC3CN(c4ccc(S(=O)(=O)c5ccncc5)cc4)C3)CC2)C1 (stereo not given)', 'Menin (Homo sapiens, UniProt O00255)', 1.04),
  ('CCS(=O)(=O)c1ccc(N2CC(CN3CCC(C4(C5CCCC5)NCCc5ccccc54)CC3)C2)cc1 (stereo not given)', 'Menin (Homo sapiens, UniProt O00255)', 1.53);

Test system Menin (Homo sapiens, UniProt O00255); read-out log10 of IC50; what value for CC(=O)O[C@H]1CCC[C@@H]1[C@](C#N)(c1ccccc1)C1CCN(CC2CN(c3ccc(C#N)cc3)C2)CC1 (mixture of isomers) ?
1.60

Test system Menin (Homo sapiens, UniProt O00255); read-out log10 of IC50; what value for CS(=O)(=O)c1ccc(N2CC(CN3CCC(C4(C5CCCC5)NCCc5ccccc54)CC3)C2)cc1 (stereo not given) ?
2.16

Test system Menin (Homo sapiens, UniProt O00255); read-out log10 of IC50; what value for O=S(=O)(c1ccc(N2CC(CN3CCC(C4(C5CCCC5)NCCc5ccccc54)CC3)C2)cc1)C1CCCCC1 (stereo not given) ?
1.00

Test system Menin (Homo sapiens, UniProt O00255); read-out log10 of IC50; what value for O=S(=O)(c1ccncc1)c1ccc(N2CC(CN3CCC(C4(C5CCCC5)NCCc5ccccc54)CC3)C2)cc1 (stereo not given) ?
1.23

Test system Menin (Homo sapiens, UniProt O00255); read-out log10 of IC50; what value for N#Cc1ccc(N2CCC(CN3CCC(C4(C5CCCC5)NCCc5ccccc54)CC3)C2)cc1 (stereo not given) ?
1.94

Test system Menin (Homo sapiens, UniProt O00255); read-out log10 of IC50; what value for N#Cc1ccc(N2CCCC(CN3CCC(C4(C5CCCC5)NCCc5ccccc54)CC3)C2)cc1 (stereo not given) ?
3.82

Test system Menin (Homo sapiens, UniProt O00255); read-out log10 of IC50; what value for CNC(=O)O[C@H]1CCC[C@@H]1[C@](C#N)(c1ccccc1)C1CCN(CC2CN(c3ccc(C#N)cc3)C2)CC1 (mixture of isomers) ?
1.04

Test system Menin (Homo sapiens, UniProt O00255); read-out log10 of IC50; what value for CCC(=O)O[C@H]1CCC[C@@H]1[C@](C#N)(c1ccccc1)C1CCN(CC2CN(c3ccc(C#N)cc3)C2)CC1 (mixture of isomers) ?
1.52

Test system Menin (Homo sapiens, UniProt O00255); read-out log10 of IC50; what value for CNC(=O)O[C@H]1CCC[C@@H]1[C@]1(C2CCN(CC3CN(c4ccc(S(=O)(=O)c5ccncc5)cc4)C3)CC2)CN(C)Cc2ccccc21 (mixture of isomers) ?
0.70

Test system Menin (Homo sapiens, UniProt O00255); read-out log10 of IC50; what value for CC(=O)N[C@H]1CCC[C@@H]1[C@](C#N)(c1ccccc1)C1CCN(CC2CN(c3ccc(C#N)cc3)C2)CC1 (racemic) ?
2.01

###

Target sequence: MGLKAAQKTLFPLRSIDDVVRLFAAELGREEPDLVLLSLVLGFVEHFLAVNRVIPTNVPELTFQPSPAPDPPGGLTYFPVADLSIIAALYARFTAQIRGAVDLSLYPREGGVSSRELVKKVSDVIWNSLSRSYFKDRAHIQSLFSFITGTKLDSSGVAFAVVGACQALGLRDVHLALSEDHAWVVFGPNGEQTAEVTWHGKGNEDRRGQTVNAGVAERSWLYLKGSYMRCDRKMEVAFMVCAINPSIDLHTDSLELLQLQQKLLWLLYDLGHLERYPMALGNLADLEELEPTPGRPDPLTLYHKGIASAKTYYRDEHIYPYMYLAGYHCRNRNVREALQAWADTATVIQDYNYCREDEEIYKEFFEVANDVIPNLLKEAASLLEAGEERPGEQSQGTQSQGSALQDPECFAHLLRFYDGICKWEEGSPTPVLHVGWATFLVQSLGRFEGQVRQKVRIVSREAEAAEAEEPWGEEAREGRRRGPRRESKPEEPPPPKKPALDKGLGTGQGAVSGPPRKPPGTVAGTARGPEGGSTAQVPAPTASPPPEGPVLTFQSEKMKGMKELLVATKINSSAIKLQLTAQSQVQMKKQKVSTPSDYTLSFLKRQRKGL
metric: Kd (nM)
Expressed in nM, but write only the number.

What measured Kd goes with CNC(=O)O[C@H]1CCC[C@@H]1[C@]1(C2CCN(CC3CN(c4ccc(S(=O)(=O)c5ccncc5)cc4)C3)CC2)CN(C)Cc2ccccc21 (mixture of isomers) ?
1.4

###

- test.target: Menin (Homo sapiens, UniProt O00255)
- Sequence (O00255 whole entry): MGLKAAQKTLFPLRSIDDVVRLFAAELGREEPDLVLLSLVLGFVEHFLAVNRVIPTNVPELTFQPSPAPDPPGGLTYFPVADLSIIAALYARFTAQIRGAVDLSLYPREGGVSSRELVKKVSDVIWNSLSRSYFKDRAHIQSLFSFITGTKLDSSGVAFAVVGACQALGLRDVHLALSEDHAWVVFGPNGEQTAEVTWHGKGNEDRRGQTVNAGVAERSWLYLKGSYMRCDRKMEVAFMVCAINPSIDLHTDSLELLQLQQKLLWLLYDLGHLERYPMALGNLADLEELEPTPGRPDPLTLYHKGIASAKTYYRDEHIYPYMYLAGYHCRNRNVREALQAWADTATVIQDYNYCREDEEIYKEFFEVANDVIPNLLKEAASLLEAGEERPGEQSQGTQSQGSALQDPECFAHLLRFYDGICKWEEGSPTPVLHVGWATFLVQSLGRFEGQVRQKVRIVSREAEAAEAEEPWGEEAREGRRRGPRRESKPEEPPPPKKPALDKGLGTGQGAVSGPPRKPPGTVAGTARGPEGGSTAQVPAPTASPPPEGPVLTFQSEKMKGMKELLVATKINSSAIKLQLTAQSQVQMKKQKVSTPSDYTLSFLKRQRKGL
Recorded log10 of Ki by entry
Plainly stated, the numbers are log10 of Ki given in nM.

INSERT INTO assay_data (compound, metric, endpoint_result) VALUES
  ('N#Cc1ccc(N2CC(CN3CCC(C(C#N)(c4ccccc4)C4CCCC4)CC3)C2)cc1 (racemic)', 'log10 of Ki', 2.98),
  ('CC(=O)N[C@H]1CCC[C@@H]1[C@](C#N)(c1ccccc1)C1CCN(CC2CN(c3ccc(C#N)cc3)C2)CC1 (racemic)', 'log10 of Ki', 1.51),
  ('CNC(=O)O[C@H]1CCC[C@@H]1[C@](C#N)(c1ccccc1)C1CCN(CC2CN(c3ccc(C#N)cc3)C2)CC1 (mixture of isomers)', 'log10 of Ki', 0.43);

What measured log10 of Ki goes with CCN1Cc2ccccc2C(C2CCCC2)(C2CCN(CC3CN(c4ccc(S(=O)(=O)c5ccncc5)cc4)C3)CC2)C1 (configuration not stated) ?
0.00

What measured log10 of Ki goes with O=S(=O)(c1ccncc1)c1ccc(N2CC(CN3CCC(C4(C5CCCC5)CN(CC5COC5)Cc5ccccc54)CC3)C2)cc1 (configuration not stated) ?
0.85

What measured log10 of Ki goes with N#Cc1ccc(N2CCCC(CN3CCC(C4(C5CCCC5)NCCc5ccccc54)CC3)C2)cc1 (configuration not stated) ?
3.33
